target: T1, human CLDN18.2 (human); assay: FACS on HEK293/hCLDN18.2 cells
T1 construct: the HEK293 line was made with a GenScript plasmid; also called hCLDN18.2
Measurement type: EC50 (nM)
Expressed in nM, but write only the number.

Query: Fill in the blank: the reported EC50 of PR007244 (antibody, human IgG1, V domains shown, HCDR2 PTM-removal mutant of PR004533; HCAb, human IgG1 Fc; also called 4533_M4H6) VH: EVQLVESGGGLVQPGGSLRLSCAASGFTFSSYWMHWVRQVPGKGLVWVSRIDSRGSRTIYADSVKGRFTISRDNAKNTLYLQMNSLRAEDTAVYYCARGEDHDILTGYPIRGQGTTVTVSS is ____.
Response: 11.7

Continuing:
Query: Fill in the blank: the reported EC50 of PR007243 (antibody, human IgG1, V domains shown, HCDR2 PTM-removal mutant of PR004533; HCAb, human IgG1 Fc; also called 4533_M3D9) VH: EVQLVESGGGLVQPGGSLRLSCAASGFTFSSYWMHWVRQVPGKGLVWVSRISSAGSRTIYADSVKGRFTISRDNAKNTLYLQMNSLRAEDTAVYYCARGEDHDILTGYPIRGQGTTVTVSS is ____.
Response: 13.3

Query: Note, next up: PR007245 (antibody, human IgG1, V domains shown, HCDR2 PTM-removal mutant of PR004533; HCAb, human IgG1 Fc; also called 4533_M6E6) VH: EVQLVESGGGLVQPGGSLRLSCAASGFTFSSYWMHWVRQVPGKGLVWVSRISSDASRTIYADSVKGRFTISRDNAKNTLYLQMNSLRAEDTAVYYCARGEDHDILTGYPIRGQGTTVTVSS
Response: 13

Query: Note, next up: PR007242 (antibody, human IgG1, V domains shown, HCDR2 PTM-removal mutant of PR004533; HCAb, human IgG1 Fc; also called 4533_M10E1) VH: EVQLVESGGGLVQPGGSLRLSCAASGFTFSSYWMHWVRQVPGKGLVWVSRINFDSSRTIYADSVKGRFTISRDNAKNTLYLQMNSLRAEDTAVYYCARGEDHDILTGYPIRGQGTTVTVSS
Response: 11.3
